experiment: Selectivity index, ratio of IC50 for cytotoxicity against human HDF cells to IC50 for cytotoxicity against human PC-3 cells; type: toxicity, cell-based; conditions: HDF cells versus PC-3 cells, read-out: Ratio IC50
Hi there, I'd appreciate the recorded selectivity ratio for every entry that follows.
Answers are plain numbers.

CO[C@H]1/C=C\C=C(/C)C(=O)NC2=CC(=O)C(NCC3CCC(C(=O)O)CC3)=C(C[C@@H](C)C[C@H](OC)[C@H](O)[C@@H](C)/C=C(\C)[C@@H]1OC(N)=O)C2=O (stereo not given in full) :: 3.12
CCCCOCCOCCNC1=C2C[C@@H](C)C[C@H](OC)[C@H](O)[C@@H](C)/C=C(\C)[C@H](OC(N)=O)[C@@H](OC)/C=C\C=C(/C)C(=O)NC(=CC1=O)C2=O :: 1.78

Could I get selectivity ratio for every one of these entries?
1. CO[C@H]1/C=C\C=C(/C)C(=O)NC2=CC(=O)C(NCc3ccccc3F)=C(C[C@@H](C)C[C@H](OC)[C@H](O)[C@@H](C)/C=C(\C)[C@@H]1OC(N)=O)C2=O
2. CO[C@@H](C=CC=C(C)C(N)=O)[C@@H](OC(N)=O)/C(C)=C/[C@H](C)[C@@H](O)[C@H](C[C@H](C)CC1=C(NCCO)C(=O)C=C(NCCO)C1=O)OC

**A:**
1.77
2.72

**Q:** May I ask what selectivity ratio has been recorded for "CO[C@H]1/C=C\C=C(/C)C(=O)NC2=CC(=O)C(NC3CCN(C(C)=O)CC3)=C(C[C@@H](C)C[C@H](OC)[C@H](O)[C@@H](C)/C=C(\C)[C@@H]1OC(N)=O)C2=O" ?
**A:** 2.52

###

experiment: Selectivity index, ratio of IC50 for cytotoxicity against human HDF cells to IC50 for cytotoxicity against human A549 cells; type: toxicity, cell-based; settings: HDF cells versus A549 cells, read-out: Ratio IC50
Hi there, I'd appreciate the recorded selectivity ratio for every entry that follows.

Some solved cases for reference:
CO[C@H]1/C=C\C=C(/C)C(=O)NC2=CC(=O)C(NCCOCCO)=C(C[C@@H](C)C[C@H](OC)[C@H](O)[C@@H](C)/C=C(\C)[C@@H]1OC(N)=O)C2=O :: 2.32
CCOC(=O)C1CCC(CNC2=C3C[C@@H](C)C[C@H](OC)[C@H](O)[C@@H](C)/C=C(\C)[C@H](OC(N)=O)[C@@H](OC)/C=C\C=C(/C)C(=O)NC(=CC2=O)C3=O)CC1 (stereo partly drawn) :: 3.64

--- query ---
**Q:** // query selectivity ratio value for entry "CCCCOCCOCCNC1=C2C[C@@H](C)C[C@H](OC)[C@H](O)[C@@H](C)/C=C(\C)[C@H](OC(N)=O)[C@@H](OC)/C=C\C=C(/C)C(=O)NC(=CC1=O)C2=O"
**A:** 2.22

###

test: Selectivity index, ratio of IC50 for cytotoxicity against human HDF cells to IC50 for cytotoxicity against human A549 cells; assay type: toxicity, cell-based; conditions: HDF cells versus A549 cells, read-out: Ratio IC50
What selectivity ratio was measured for each of the following?
Numbers only.

Known selectivity ratio results, listed for orientation:
CO[C@H]1/C=C\C=C(/C)C(=O)NC2=CC(=O)C(NC3CCC(O)CC3)=C(C[C@@H](C)C[C@H](OC)[C@H](O)[C@@H](C)/C=C(\C)[C@@H]1OC(N)=O)C2=O (stereo partly specified) :: 2.47
CO[C@H]1/C=C\C=C(/C)C(=O)NC2=CC(=O)C(NCCN3CCCC3=O)=C(C[C@@H](C)C[C@H](OC)[C@H](O)[C@@H](C)/C=C(\C)[C@@H]1OC(N)=O)C2=O :: 1.8
CO[C@@H](/C=C/C=C(/C)C(N)=O)[C@@H](OC(N)=O)/C(C)=C/[C@H](C)[C@@H](O)[C@H](C[C@H](C)CC1=C(NCCCCO)C(=O)C=C(NCCCCO)C1=O)OC :: 1.55

Hello, I would appreciate it if you could give selectivity ratio for each entry below.
1. C=CCNC1=C2C[C@@H](C)C[C@H](OC)[C@H](O)[C@@H](C)/C=C(\C)[C@H](OC(N)=O)[C@@H](OC)/C=C\C=C(/C)C(=O)NC(=CC1=O)C2=O
2. CO[C@@H](C=CC=C(C)C(N)=O)[C@@H](OC(N)=O)/C(C)=C/[C@H](C)[C@@H](O)[C@H](C[C@H](C)CC1=C(NCCO)C(=O)C=C(NCCO)C1=O)OC

**A:**
[52, 2.03]

# batch: return selectivity ratio for each of the 2 compounds below
1. CO[C@H]1/C=C\C=C(/C)C(=O)NC2=CC(=O)C(NCC3CCC(C(=O)O)CC3)=C(C[C@@H](C)C[C@H](OC)[C@H](O)[C@@H](C)/C=C(\C)[C@@H]1OC(N)=O)C2=O (stereo partly specified)
2. CO[C@@H](/C=C/C=C(/C)C(N)=O)[C@@H](OC(N)=O)/C(C)=C/[C@H](C)[C@@H](O)[C@H](C[C@H](C)CC1=C(NCCCN2CCCC2)C(=O)C=C(NCCCN2CCCC2)C1=O)OC

**A:**
2.53
2.54

Batch: selectivity ratio for all items listed.
1. C#CCCN1CCC(NC2=C3C[C@@H](C)C[C@H](OC)[C@H](O)[C@@H](C)/C=C(\C)[C@H](OC(N)=O)[C@@H](OC)/C=C\C=C(/C)C(=O)NC(=CC2=O)C3=O)CC1
2. CO[C@H]1/C=C\C=C(/C)C(=O)NC2=CC(=O)C(NCCCN3CCCC3)=C(C[C@@H](C)C[C@H](OC)[C@H](O)[C@@H](C)/C=C(\C)[C@@H]1OC(N)=O)C2=O
3. C#CCNC1=C2C[C@@H](C)C[C@H](OC)[C@H](O)[C@@H](C)/C=C(\C)[C@H](OC(N)=O)[C@@H](OC)/C=C\C=C(/C)C(=O)NC(=CC1=O)C2=O
4. CO[C@H]1/C=C\C=C(/C)C(=O)NC2=CC(=O)C(NC3CCN(S(C)(=O)=O)CC3)=C(C[C@@H](C)C[C@H](OC)[C@H](O)[C@@H](C)/C=C(\C)[C@@H]1OC(N)=O)C2=O

**A:**
2.69
2.83
1.74
2.19
